# SYSTEM_NAME: CXCR3 (Homo sapiens (Human))
# Sequence (P49682 whole entry): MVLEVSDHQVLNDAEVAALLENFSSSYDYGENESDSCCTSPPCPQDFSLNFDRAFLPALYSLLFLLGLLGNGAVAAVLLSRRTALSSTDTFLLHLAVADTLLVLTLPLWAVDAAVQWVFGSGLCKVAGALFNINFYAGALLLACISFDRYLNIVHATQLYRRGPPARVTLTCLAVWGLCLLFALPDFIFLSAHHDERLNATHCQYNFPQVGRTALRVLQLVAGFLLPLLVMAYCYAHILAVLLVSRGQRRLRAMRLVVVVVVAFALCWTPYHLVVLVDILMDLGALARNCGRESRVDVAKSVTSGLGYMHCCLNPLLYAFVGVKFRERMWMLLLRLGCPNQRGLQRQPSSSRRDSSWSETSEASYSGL
# ASSAY_NAME: Receptor internalization assay
# Format: cell-based
# CONDITIONS: human whole blood; final CXCL10 concentration 9 nM; 30 min 37° C.; CXCR3 cell surface expression on CD3 positive cells, flow cytometer; read-out: Internalization IC50
# IC50 values compiled below
Give the quantity in nM, number only.

COMPOUND	IC50, nM
Cc1nc(C)n(CC(=O)N2CCN(c3sc(C(F)(F)F)nc3-c3nc4ccccc4[nH]3)C[C@H]2C)n1 [Example 178]	224
Cc1nc(C)n(CC(=O)N2CCN(c3sc(C(F)(F)F)nc3-c3nc4c(F)c(F)ccc4[nH]3)C[C@H]2C)n1 [Example 231]	332
C[C@@H]1CN(c2sc(C(F)(F)F)nc2-c2nc3ccccc3[nH]2)CCN1C(=O)Cn1nccn1 [Example 197]	5310
O=C(Cn1ccc2cccnc21)N1CCN(c2sc(Br)nc2-c2nc3ccccc3[nH]2)CC1 [Example 38]	1580
C[C@@H]1CN(c2sc(C(F)(F)F)nc2-c2nc3ccccc3[nH]2)CCN1C(=O)Cc1ccccc1N1CCN(C)CC1 [Example 208]	310
C[C@@H]1CN(c2sc(C(F)(F)F)nc2-c2nc3ccccc3[nH]2)CCN1C(=O)Cc1cccc2cccnc12 [Example 190]	514
O=C(Cn1ccc2c(Cl)cccc21)N1CCN(c2scnc2-c2nc3ccccc3[nH]2)CC1 [Example 60]	1400

Now for the compound whose IC50 we want.
Input Cc1nc(C)n(CC(=O)N2CCN(c3sc(C(F)(F)F)nc3-c3nc4ccc(-c5noc(C)n5)cc4[nH]3)C[C@H]2C)n1 [Example 236] . Output IC50: 265
